biological target: ATP-dependent RNA helicase A (UniProt Q08211); assay: Biochemical Assay
Sequence (Q08211 whole entry): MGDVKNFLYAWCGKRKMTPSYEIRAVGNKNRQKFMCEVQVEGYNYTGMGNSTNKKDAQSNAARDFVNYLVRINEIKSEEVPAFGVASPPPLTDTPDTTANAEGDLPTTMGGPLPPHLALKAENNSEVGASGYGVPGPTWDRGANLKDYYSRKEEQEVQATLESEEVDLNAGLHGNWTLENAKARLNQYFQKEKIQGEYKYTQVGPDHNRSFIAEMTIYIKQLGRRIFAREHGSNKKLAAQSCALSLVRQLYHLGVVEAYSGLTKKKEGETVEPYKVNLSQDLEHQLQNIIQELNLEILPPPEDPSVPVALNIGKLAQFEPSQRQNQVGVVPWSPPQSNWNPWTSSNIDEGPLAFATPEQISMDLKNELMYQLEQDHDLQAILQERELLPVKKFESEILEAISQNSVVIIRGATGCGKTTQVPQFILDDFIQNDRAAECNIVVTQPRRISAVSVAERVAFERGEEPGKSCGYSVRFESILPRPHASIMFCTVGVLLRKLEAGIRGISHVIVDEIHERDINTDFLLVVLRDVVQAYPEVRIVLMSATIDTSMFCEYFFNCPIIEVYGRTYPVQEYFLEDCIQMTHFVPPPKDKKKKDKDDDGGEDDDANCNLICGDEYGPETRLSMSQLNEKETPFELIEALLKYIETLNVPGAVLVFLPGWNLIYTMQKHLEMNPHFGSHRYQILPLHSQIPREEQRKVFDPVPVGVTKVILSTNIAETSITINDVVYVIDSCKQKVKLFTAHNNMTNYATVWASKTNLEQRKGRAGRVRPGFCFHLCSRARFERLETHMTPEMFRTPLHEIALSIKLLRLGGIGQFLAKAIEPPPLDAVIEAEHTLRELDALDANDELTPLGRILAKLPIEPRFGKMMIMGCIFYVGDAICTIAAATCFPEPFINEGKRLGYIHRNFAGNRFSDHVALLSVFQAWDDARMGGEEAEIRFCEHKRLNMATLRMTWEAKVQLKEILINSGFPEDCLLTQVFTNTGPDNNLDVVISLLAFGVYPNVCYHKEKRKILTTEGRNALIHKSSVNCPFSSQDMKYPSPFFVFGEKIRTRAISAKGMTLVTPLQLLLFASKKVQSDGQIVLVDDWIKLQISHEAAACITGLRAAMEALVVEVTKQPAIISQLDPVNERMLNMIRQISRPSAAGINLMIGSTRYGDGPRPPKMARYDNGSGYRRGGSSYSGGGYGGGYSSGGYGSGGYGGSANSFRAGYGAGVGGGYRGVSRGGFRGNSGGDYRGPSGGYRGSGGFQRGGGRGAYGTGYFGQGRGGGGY
Recorded Metric: IC50 (nM)
Quick reminder: number only, in nM, skip the unit.

Please give the measured IC50 for this molecule: Cc1cc(C(=O)Nc2cc(Cl)cc(NS(C)(=O)=O)c2)cn1-c1ccccc1 [US20240316047, Example 129]
38.4

Tell me the measured IC50 of Cc1sc(C(=O)Nc2cc(Cl)cc(NS(C)(=O)=O)c2)cc1-c1ncc(N2CCC3(C2)CC3(F)F)cn1 (stereo not drawn) [US20240316047, Example 491] , please.
10.8

Sample CC(C)(C)OC(=O)N1CCC(n2cc(C(=O)Nc3cc(Cl)cc(NS(C)(=O)=O)c3)cn2)CC1 [US20240316047, Example 136] — what was its IC50?
234
